Exercise: state measured Ki for each of the compounds provided.
- tested system: Prostaglandin E2 receptor EP2 subtype (Homo sapiens)
- Sequence (P43116 whole entry): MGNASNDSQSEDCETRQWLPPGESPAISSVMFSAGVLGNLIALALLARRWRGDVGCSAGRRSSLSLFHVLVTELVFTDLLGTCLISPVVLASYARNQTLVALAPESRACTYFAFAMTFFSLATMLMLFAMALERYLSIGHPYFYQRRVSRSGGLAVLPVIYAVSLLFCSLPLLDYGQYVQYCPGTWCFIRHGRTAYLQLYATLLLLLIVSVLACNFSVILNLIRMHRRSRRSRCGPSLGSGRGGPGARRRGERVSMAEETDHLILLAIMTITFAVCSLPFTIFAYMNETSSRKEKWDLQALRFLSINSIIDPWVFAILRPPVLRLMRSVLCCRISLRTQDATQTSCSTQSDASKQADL
- measurement protocol: FLIPR Assay: Cells were seeded at a density of 5×10^4 cells per well in Biocoat® Poly-D-lysine-coated black-wall, clear-bottom 96-well plates (Becton-Dickinson) and allowed to attach overnight in an incubator at 37° C. Cells were then washed two times with HBSS-HEPES buffer (Hanks Balanced Salt Solution without bicarbonate and phenol red, 20 mM HEPES, pH 7.4) using a Denley Cellwash plate washer (Labsystems). After 45 minutes of dye-loading in the dark, using the calcium-sensitive dye Fluo-4 AM at a final concentration of […], plates were washed four times with HBSS-HEPES buffer to remove excess dye leaving […] in each well. Plates were re-equilibrated to 37° C. for a few minutes.Cells were excited with an Argon laser at 488 nm, and emission was measured through a 510-570 nm bandwidth emission filter (FLIPR™, Molecular Devices, Sunnyvale, Calif.). Drug solution was added in a 50 μl volume to each well to give the desired final concentration. The peak increase in fluorescence intensity was recorded for each well. On each plate, four wells each served as negative (HBSS-HEPES buffer) and positive controls (standard agonists: BW245C (hDP); PGE2 (hEP1; hEP2/Gqs5; hEP3A/Gqi5; hEP4/Gqs5); PGF2a (hFP); carbacyclin (hIP); U-46619 (hTP), depending on receptor). The peak fluorescence change in each drug-containing well was then expressed relative to the controls.
Give just the numeric value; nM need not be written.

(Q) Please look at this compound and report its Ki: `O=C(O)c1ccc(CCc2cccc3c2N(Cc2cc(C(F)(F)F)cc(C(F)(F)F)c2)CC3)cc1`
(A) 0.3

(Q) State its Ki: `COc1cccc(Cn2ccc3cccc(CCc4ccc(C(=O)O)cc4)c32)c1`
(A) 259

(Q) Answer with the recorded Ki for the compound listed here: `COc1cccc(CN2CCc3cccc(CCc4ccc(C(=O)O)s4)c32)c1`
(A) 50

(Q) In one line, give reported Ki of the entry `COc1cccc(CN2Cc3cccc(CCc4ccc(C(=O)O)cc4)c3C2)c1` .
(A) 6880

(Q) Give reported Ki value for `O=C(O)c1ccc(CCc2cccc3c2N(Cc2cccc(F)c2)CC3)cc1`
(A) 38

(Q) # return recorded Ki for entry `COc1cccc(CCN2Cc3cccc(CCc4ccc(C(=O)O)cc4)c3C2)c1`
(A) 1130

(Q) State its Ki: `COc1cccc(CCN2CCc3cccc(CCc4ccc(C(=O)O)cc4)c32)c1`
(A) 41

(Q) Look up and report measured Ki for this entry: `COc1cc(CN2CCc3cc(F)cc(CCc4ccc(C(=O)O)cc4)c32)cc(OC)c1`
(A) 14

(Q) Specify Ki for `O=C(O)c1ccc(CCc2cccc3c2N(Cc2cc(F)cc(F)c2)CC3)cc1` and stop.
(A) 12

---

- tested system: Prostaglandin E2 receptor EP4 subtype (Homo sapiens)
- Sequence (P35408 whole entry): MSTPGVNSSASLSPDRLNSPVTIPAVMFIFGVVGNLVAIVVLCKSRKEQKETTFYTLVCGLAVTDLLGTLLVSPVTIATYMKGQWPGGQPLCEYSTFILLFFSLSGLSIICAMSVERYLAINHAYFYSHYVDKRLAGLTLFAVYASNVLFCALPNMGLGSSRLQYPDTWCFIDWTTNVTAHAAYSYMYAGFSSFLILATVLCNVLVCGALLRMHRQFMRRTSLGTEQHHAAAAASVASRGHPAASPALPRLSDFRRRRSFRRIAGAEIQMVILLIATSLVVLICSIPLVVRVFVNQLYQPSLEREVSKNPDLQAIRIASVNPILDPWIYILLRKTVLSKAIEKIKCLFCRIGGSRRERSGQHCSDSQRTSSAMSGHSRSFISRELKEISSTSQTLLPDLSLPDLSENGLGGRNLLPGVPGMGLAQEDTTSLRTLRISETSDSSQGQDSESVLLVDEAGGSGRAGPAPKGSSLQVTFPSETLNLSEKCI
- measurement protocol: FLIPR Assay: Cells were seeded at a density of 5×10^4 cells per well in Biocoat® Poly-D-lysine-coated black-wall, clear-bottom 96-well plates (Becton-Dickinson) and allowed to attach overnight in an incubator at 37° C. Cells were then washed two times with HBSS-HEPES buffer (Hanks Balanced Salt Solution without bicarbonate and phenol red, 20 mM HEPES, pH 7.4) using a Denley Cellwash plate washer (Labsystems). After 45 minutes of dye-loading in the dark, using the calcium-sensitive dye Fluo-4 AM at a final concentration of […], plates were washed four times with HBSS-HEPES buffer to remove excess dye leaving […] in each well. Plates were re-equilibrated to 37° C. for a few minutes.Cells were excited with an Argon laser at 488 nm, and emission was measured through a 510-570 nm bandwidth emission filter (FLIPR™, Molecular Devices, Sunnyvale, Calif.). Drug solution was added in a 50 μl volume to each well to give the desired final concentration. The peak increase in fluorescence intensity was recorded for each well. On each plate, four wells each served as negative (HBSS-HEPES buffer) and positive controls (standard agonists: BW245C (hDP); PGE2 (hEP1; hEP2/Gqs5; hEP3A/Gqi5; hEP4/Gqs5); PGF2a (hFP); carbacyclin (hIP); U-46619 (hTP), depending on receptor). The peak fluorescence change in each drug-containing well was then expressed relative to the controls.
quantity measured: Ki (nM)
Numeric only. Scale: nM

(Q) Please supply the value of reported Ki for the item `O=C(O)c1ccc(CCc2cccc3c2N(Cc2ccc(F)cc2)CC3)cc1`
(A) 616

(Q) Please look at this compound and report its Ki: `COc1cccc(CN2Cc3cccc(CCc4ccc(C(=O)O)cc4)c3C2)c1`
(A) 9560

(Q) Return value of Ki for input `COc1cc(OC)cc(N2Cc3cccc(CCc4ccc(C(=O)O)cc4)c3C2)c1` , no commentary.
(A) 3900

(Q) Return the recorded Ki value; entry: `COc1cccc(Cn2ccc3cccc(CCc4ccc(C(=O)O)cc4)c32)c1`
(A) 1680

(Q) Assign Ki to the following record: `O=C(O)c1ccc(CCc2cccc3c2N(CCc2ccccc2)CC3)cc1`
(A) 1090

(Q) Input `COc1cccc(CCN2CCc3cccc(CCc4ccc(C(=O)O)cc4)c32)c1` , output reported Ki.
(A) 373

(Q) Specify measured Ki for `O=C(O)c1ccc(CCc2cccc3c2N(Cc2cc(F)cc(F)c2)CC3)cc1` .
(A) 412

(Q) Please look at this compound and report its Ki: `O=C(O)c1ccc(CCc2cccc3c2N(Cc2cccc(C(F)(F)F)c2)CC3)cc1`
(A) 424

(Q) Look up and report measured Ki for this entry: `COc1cccc(CN2CCc3cccc(CCc4ccc(C(=O)O)cc4)c32)c1`
(A) 123

(Q) Tell me its Ki given `O=C(O)c1ccc(CCc2cccc3c2N(Cc2cc(C(F)(F)F)cc(C(F)(F)F)c2)CC3)cc1` as the entry.
(A) 1200

(Q) Consider the compound `COc1cc(CN2CCc3cc(F)cc(CCc4ccc(C(=O)O)cc4)c32)cc(OC)c1` and give its recorded Ki.
(A) 2

(Q) Answer with the recorded Ki of `COc1cccc(CN2CCc3cccc(CCc4ccc(C(=O)O)s4)c32)c1` only.
(A) 714

(Q) Quote Ki reported for `O=C(O)c1ccc(CCc2cccc3c2N(Cc2cccc(F)c2)CC3)cc1` please.
(A) 897

(Q) Let me know recorded Ki for `COc1cccc(CC(=O)N2CCc3cccc(CCc4ccc(C(=O)O)cc4)c32)c1` , thanks.
(A) 449

(Q) Indicate its recorded Ki; the compound in question is `COc1cc(OC)cc(C(=O)N2CCc3cccc(CCc4ccc(C(=O)O)cc4)c32)c1`
(A) 4860
